test: Cytotoxicity against human HFF by spectrophotometry; assay type: cell-based; details: HFF cells, read-out: TD50 (the source's name)
# Lookup of reported CC50 keyed by entry

These recorded examples may help you get a feel for the data.
* CCOC(=O)c1csc(N/N=C(\C)c2ccc3ccccc3c2)n1 | 127 µM
* CCOC(=O)c1csc(N/N=C/c2ccc3c(c2)OCO3)n1 | ≥ 320 µM
* O=C(O)c1csc(NN=C2CCCCC2)n1 | ≥ 320 µM
* CCOC(=O)c1csc(N/N=C/c2c[nH]c3ccccc23)n1 | ≥ 320 µM
* CC1CCC(=NNc2nc(C(=O)O)cs2)CC1 (stereo not drawn) | ≥ 320 µM
* O=C(O)c1csc(NN=C2CCCCCC2)n1 | ≥ 320 µM
* CC1CCC/C(=N/Nc2nc(C(=O)O)cs2)C1 (stereo not drawn) | ≥ 320 µM
* CCOC(=O)c1csc(N/N=C/c2cccc3ccccc23)n1 | ≥ 320 µM
* CCOC(=O)c1csc(N/N=C/c2cccs2)n1 | ≥ 320 µM
* CCOC(=O)c1csc(N/N=C(\C)c2ccco2)n1 | 241 µM

Okay, next one:
Tell me the measured CC50 of `CCOC(=O)c1csc(N/N=C(\C)c2cc3ccccc3oc2=O)n1` , please.
≥ 320 µM

Ref: ChEMBL document CHEMBL1158489
